Experiment: Cytotoxicity assay in LLCMK2 epithelial cells (MTT, 72 h)
Format: cell-based
Conditions: Macaca mulatta, LLCMK2 kidney epithelial cells, pH 7.2, LLCMK2, 50% inhibition of growth
experimental_endpoint: CC50 at 72 h (µM)
Provide only the numeric value, understood in µM.

Task: Suppose we examine the compound CSC(N)=NN=Cc1c(C(F)(F)F)nn(-c2ccccc2)c1-c1ccccc1 [3e] ; what CC50 at 72 h value has been reported?
Output: 202

Task: Further, for NC(=S)NN=Cc1c(C(F)(F)F)nn(-c2ccccc2)c1-c1ccc([N+](=O)[O-])cc1 [2a] ?
Output: 303

Task: Another compound: COc1ccc(-c2c(-c3nnc(N)s3)c(C(F)(F)F)nn2-c2ccccc2)cc1 [4f]
Output: 134

Task: // same read-out, input: O=Cc1c(C(F)(F)F)nn(-c2ccccc2)c1-c1ccc([N+](=O)[O-])cc1 [compound 5]
Output: 422

Task: Now consider Nc1nnc(-c2c(C(F)(F)F)nn(-c3ccccc3)c2-c2ccc(Br)cc2)s1 [4d] and answer again.
Output: 120

Task: Query Nc1nnc(-c2c(C(F)(F)F)nn(-c3ccccc3)c2-c2ccc(Cl)cc2)s1 [4c] next
Output: 350
